# EXPERIMENTAL_DETAILS: Quantitative High-Throughput drug screen in 47 multiple myeloma cell lines against the NCATS MIPE library collection: EJM_DSMZ cell viability assay (AID 1918926; note: nearly all actives have a fitted effect of over 30% in size)
# CONDITION_NOTES: EJM myeloma cell viability, CellTiter-Glo ATP, 48 h; series mostly up to 45.8 µM
Inconclusive results are not listed. Active and inactive are the calls of the source. Calls come from the whole dose curve; as a rule, active = well fitted cell-killing curve with a large enough effect; inconclusive = small, poorly fitted or top-dose-only effect, or effect the other way; inactive = no such curve, though single readings can be large or run the other way.
Response enum: y for active, n for inactive

Short answer needed: outcome of this test for "CC(C)(CO)[C@@H](O)C(=O)NCCC(=O)O" ?
n

Now consider "CSc1cccc(Nc2ncc3cc(-c4c(Cl)cccc4Cl)c(=O)n(C)c3n2)c1" and answer again.
y

Now consider "CCN(CCO)CCCOc1ccc2c(Nc3cc(CC(=O)Nc4cccc(F)c4)[nH]n3)ncnc2c1" and answer again.
n

Now consider "O=c1cc(-c2ccc(O)c(O)c2)oc2cc(O)cc(O)c12" and answer again.
n

Now consider "CCC(=C(c1ccc(O)cc1)c1ccc(OCCNC)cc1)c1ccccc1" and answer again.
y

Now consider "C[C@@H](N)c1ccc(C(=O)Nc2ccnc3[nH]ccc23)cc1" and answer again.
y

Now consider "C[C@H](CCC(=O)O)[C@H]1CC[C@H]2[C@H]3[C@@H](CC[C@]12C)[C@@]1(C)CC[C@@H](O)C[C@H]1C[C@@H]3O" and answer again.
n

Now consider "O=C1CCCC(=O)C1C(=O)c1ccc(C(F)(F)F)cc1[N+](=O)[O-]" and answer again.
n

Now consider "Clc1ccc(C2(c3ccc(-c4cn[nH]c4)cc3)CCNCC2)cc1" and answer again.
y

Now consider "CCC(=O)NCC[C@@H]1CCc2ccc3c(c21)CCO3" and answer again.
n

Now consider "O=C(Nc1cccc2c(=O)cc(-c3nn[nH]n3)oc12)c1ccc(OCCCCc2ccccc2)cc1" and answer again.
n

Now consider CC1(C)OC2CC3C4CC(F)C5=CC(=O)C=CC5(C)C4C(O)CC3(C)[C@]2(C(=O)CO)O1 (some centres undefined) and answer again.
n

Now consider Cc1cc2nc3c(=O)[nH]c(=O)nc-3n(CC(O)C(O)C(O)CO)c2cc1C (centres undefined) and answer again.
y

Now consider "O=C(NC[C@H](O)CO)c1ccncc1Nc1ccc(I)cc1F" and answer again.
y

Now consider CC1(C)C(N(O)C(=O)Nc2ccc(Cl)cc2)N(c2ccc(Cl)cc2)C(=O)N1CC(=O)NN=CC=Cc1ccc([N+](=O)[O-])o1 (centres undefined) and answer again.
y

Now consider "C[C@@H]1[C@H](O)[C@@H](C)C=CC=CC=CC=CC=CC=CC=C[C@H](O[C@@H]2O[C@H](C)[C@H](O)[C@H](N)[C@@H]2O)C[C@@H]2O[C@](O)(C[C@@H](O)C[C@@H](O)[C@H](O)CC[C@@H](O)C[C@@H](O)CC(=O)O[C@H]1C)C[C@H](O)[C@@H]2C(=O)O" and answer again.
n

Now consider "COc1c(C)c2c(c(O)c1CC=C(C)CCC(=O)OCCN1CCOCC1)C(=O)OC2" and answer again.
n

Now consider "Oc1ccc(C=Cc2cc(O)cc(O)c2)cc1" and answer again.
n

Now consider "Cc1ccc(C2=Nc3ccc(Cl)cc3OC2)cc1" and answer again.
n

Now consider "C#C[C@]1(O)CC[C@H]2[C@H]3CCc4cc(OC)ccc4[C@H]3CC[C@@]21C" and answer again.
y

Now consider "COC(=O)N1CCN(Cc2cccc(NC(=O)Nc3ccc(C)nc3)c2F)CC1" and answer again.
n

Now consider "O=c1[nH]c(=O)n([C@H]2C[C@@H](O)[C@@H](CO)O2)cc1C(F)(F)F" and answer again.
y

Now consider "Cc1cc(CS(=O)(=O)c2ccccc2)cc(OCc2ccc(CN3CCC[C@H]3CO)cc2)c1" and answer again.
n

Now consider CCCCCOC(=O)Nc1nc(=O)n([C@@H]2O[C@H](C)[C@@H](O)C2O)cc1F (some centres undefined) and answer again.
n
